Assign apparent KD of MS2 coat protein to each entry below.
test system: MS2 coat protein; experiment: apparent KD of MS2 coat protein, switch OFF state (with FMN for OFF switches, without FMN for ON switches); designed switch direction (-1 OFF switch, 1 ON switch): -1; higher = weaker reporter binding; details: FMN input: 0 or 200 uM; Eterna round: R93 (includes R88 designs)
All answers are understood in µM, so give the number only.

Quick one: apparent KD of MS2 coat protein of AAAUGACUAGGAUAUACAUGAGGAUCACCCAUGUGUAUAAAUAAAUACACAAAAGAAAGUAGAAGGAGUCAAAA [Ex 3 May 14] ?
0.0882

Item AAAUAGGCAGGAUAUACAUGAAAAUUAAAAAAAAAAAAAAAACAUGAGGAUCACCCAUGUAGAAGGGUCAAAAA [Exclusion 2 - Omei 2] has what recorded apparent KD of MS2 coat protein?
0.0803

What value of apparent KD of MS2 coat protein has been reported for the following sequence? AAAGGACGAGGAUAUACAUGAGGAUCACCCAUGUAAAAAACAUAAGAAAAGAAGUUAUGUAGAAGGCGUCCAAA [69%, Moding Meechl, 13]
0.0173

Sample AAAAAGGUAGGAUAUACGAAAAAAAAGGGUAAAAUAAAUAAACAUGAGGAUCACCCAUGUAGAAGGACCAAAAA [Mat - Exclusion 2 - Tesla mod - D38] — what was its apparent KD of MS2 coat protein?
0.161

// query apparent KD of MS2 coat protein value for entry AGUUUGUCAGGAUAUGCGUGAAGAAUAAAACAAAUAACAACGCAGAAGGGACAUGAGGAUCACCCAUGUAAACA [May 54]
0.0581

What does the data say about its apparent KD of MS2 coat protein? Entry: AAAAUACAUGAGGAUCACCCAUGUCAGGAUAUUCCUGCAGCCUUGAAUAAGGGCUGGUGAAGAAGGGACGGUGA [Ancele]
0.0846

====

test system: MS2 coat protein; assay: apparent KD of MS2 coat protein; designed switch direction (-1 OFF switch, 1 ON switch): 1; higher = weaker reporter binding; settings: input ligand: FMN 200 uM
Mark not met for apparent KD of MS2 coat protein values under 20 nM, and met for everything at or above.

Item GAGUCAGAUCGAGGAUAUUUGUUAUGACGAUCCCACAUGAGGAUCACCCAUGUCCACGAUCCUCCAAAGAAGGUGAGGCUGGCG [Eternabot solution 32] (Eterna round: R96, puzzle: Same State NG 2) with apparent KD of MS2 coat protein of 20 nM or above?
met

Does ACAUGAGACCAAGGAUAUUUUGUACCUACAUGUGACAUGAGGAUCACCCAUGUGGUAAGUAUGAGGGAGAAGGUGGAGAUAUGU [Equivalence 24 - Jieux - Same State NG 2] (Eterna round: R96, puzzle: Same State NG 2) have a reported apparent KD of MS2 coat protein of at least 20 nM?
met

Determine whether this sequence has apparent KD of MS2 coat protein no lower than 20 nM: UACAAUCUAUCUGAGGAUAUCAUGCAUUACACAUGAGGAUCACCCAUGUGCAGGAAAACUGCAUAUGAGAAGGCAGAUAGAUUGU [salish99_ss2_r3_066] (Eterna round: R96, puzzle: Same State 2)
not met

Reported apparent KD of MS2 coat protein at or above 20 nM? AGGCUCAGACGAGGAUAUACGUGGUCACAUGAGGAUCACCCAUGUCUCGAGCUUCGGCUCGAGGCGUAGAAGGCGUCUGAGCCA [SSNG2/6-A1] (Eterna round: R96, puzzle: Same State NG 2)
met

Could you verify whether the entry CAGCGCUGUUGAGAGGAUAUGCGGUGAUGGACAUGAGGAUCACCCAUGUUAGCGACAGCAUUACGGCAGAAGGCUUCACAGCUGC [Soteed Omei mod 17] (Eterna round: R96, puzzle: Same State 2) shows apparent KD of MS2 coat protein of no less than 20 nM?
not met

Hi, just wondering whether AGCUAUUACGAAGGAUAUUGUAACAUGAGGAUCACCCAUGUUUACAUGAUUAAUUGUGAUCACGUCGAGAAGGUUGUACUAACA [SameState NG2 #33] (Eterna round: R96, puzzle: Same State NG 2) shows apparent KD of MS2 coat protein of 20 nM or higher.
not met

Answer whether apparent KD of MS2 coat protein of GGCGAACAGGCUAACAUGAGGAUCACCCAUGUGGACUCAUGGUAGGAUAUCGGGAAGGAGGAAACCGAGAAGGGCCGGUGAGCC [AK SSNG3-V2-48] (Eterna round: R96, puzzle: Same State NG 3) is greater than or equal to 20 nM.
not met
